- Tested on: Trypanosoma brucei
- test summary: Trypanosoma brucei 72 hour study
- Type: functional, organism-based
- Design: scale not given: in the data most compounds retested in dose-response had high values
- test settings: 30.3 µM; […]
In all, about 66,000 compounds went through this assay and about 960 (1.5%) showed an effect of 50% or more. The full list was thinned out, with strong results kept by preference.
Field: Percent Effect. Provide a value for each of the compounds that follow.
Answers are plain numbers, in %.

Worked set:
CC(=O)N1CCO[C@@H]2CN(Cc3ccccc3F)C[C@@H]2C1.O=C(O)C(F)(F)F | -73.74
CCOC1CCCN(C(=O)c2nn(-c3ccccc3F)cc2O)C1 (configuration not stated) | -12.09
CC(C)CNC(=O)[C@H]1CCS(=O)(=O)[C@@H]2CN(CC(C)C)C[C@H]12.O=C(O)C(F)(F)F | -19.44
Cc1ccc(CN2CCc3ncnc(-c4ccncc4)c3CC2)o1.O=C(O)C(F)(F)F.O=C(O)C(F)(F)F | -37.96
Cc1nccc([C@H]2C[C@@H]3CCN(S(=O)(=O)C4CC4)C[C@H]3O2)n1 | -36.22

Record Percent Effect for all entries; do not skip any.
1. CCOC(=O)c1n[nH]cc1-c1cncn1CCn1nc(C)c(C)c1C.Cl
2. Cc1ccoc1C(=O)NC1CCN(Cc2cccc3ccccc23)CC1

1. -11.29
2. 57.41

// each compound listed below needs its Percent Effect
1. CN(C)C(=O)CCNC(=O)Nc1sc2ccccc2c1Cl
2. CN(Cc1ccccn1)C(=O)[C@H]1CO[C@H]2CCN(CC3CC3)C[C@H]2C1.O=C(O)C(F)(F)F.O=C(O)C(F)(F)F
3. CCCc1noc(CS(=O)(=O)c2cccc(OC)c2)n1

[-534.4, -96.69, 58.74]

Go through the list and state Percent Effect for each entry.
1. COCCN1CCC2(CC1)CC(NC(=O)CC1CC1)c1ccccc1O2.O=C(O)C(F)(F)F (configuration not stated)
2. COc1ccc(CN2CCc3nc4ccsc4c(=O)n3CC2)c(C)c1C
3. c1ccc(N2CCC(OCC3CCCCO3)CC2)nc1 (configuration not stated)
4. O=C(NCC1CCCN(C(=O)NCCc2ccccc2)C1)c1ccco1 (configuration not stated)
5. CNCc1ccc([C@@H]2CN(C)C[C@H]2C(N)=O)cc1.Cl
6. COCC1COCCC12CCN(S(=O)(=O)c1cccnc1)CC2.O=C(O)C(F)(F)F (configuration not stated)
7. CCN(CC)S(=O)(=O)c1ccc(CNC(=O)c2cc(C)on2)cc1

1: -15.57; 2: 7.671; 3: -91.25; 4: 15.56; 5: -7.095; 6: -13.71; 7: 58.42

For each of the items listed, what is its Percent Effect?
1. COc1cccc(CN2CC[C@H]3[C@@H](C2)[C@H](c2ccsc2)CN3C(C)=O)c1
2. O=C(NCc1ccnc(C2CCCOC2)n1)c1cccs1 (configuration not stated)

1. -3.85
2. -2.313

###

- Tested on: Trypanosoma brucei
- test summary: Trypanosoma brucei 72 hour study
- Assay type: functional, organism-based
- Parameters: scale not given: in the data most compounds retested in dose-response had high values
- test settings: 10 µM
Hit rate of the full screen: of about 66,000 compounds, about 960 (1.5%) showed an effect of 50% or more. Only a selection was taken, and strong results are over-represented in it overall.
Response field class: enum, chosen by comparing Percent Effect against A = under -30%, B = from -30% up to -20%, C = -20% and over

Example entries and their recorded answers appear below.
CC(C)c1nn(C)c(N(C)C)c1CNCC(O)c1cccc(F)c1 (stereo not given) | A
CN(C)C(=O)C1CCN(Cc2csc(C(C)(C)C)n2)CC1 | C
O=C(COc1ccc2c(c1)CCC2)NS(=O)(=O)c1cccnc1 | A

Record "CCc1cccc(N2CCC(NC(=O)c3ccco3)CC2)c1" — which class?
C

Record Cc1nc(CN(C)C2CCN(Cc3nc4ccccc4n3C)C2)no1 (stereo not given) — which class?
C

Recorded values, source ChEMBL document CHEMBL3988442.
